test: Ex vivo biodistribution in PC-3 tumor-bearing mice; conditions: mouse, muscle, Uptake in muscle, 1 h post-injection
Numbered stars: 1 amine (or outer) side, 2 acyl side, 3 side chain; on linkers, the order of the positions; unused ones are H or OH. Square brackets hold non-standard residues; d marks the D form. Peptide text beside a SMILES is read from it. * marks the point of attachment. DOTA = O=C(O)CN1CCN(CC(=O)O)CCN(CC(=O)*)CCN(CC(=O)O)CC1; NMeH = CN[C@@H](Cc1c[nH]cn1)C(=O)O; X1 = O=C(CN1CCC(N[*:1])CC1)[*:2]; Tle = CC(C)(C)[C@H](N)C(=O)O; Thz = O=C(O)[C@@H]1CSCN1
I'd be grateful if you could share measured tissue uptake at 1 h for these entries.
Could you give me the number in %ID/g? Just the number is fine.

Fill in the blank: the reported tissue uptake at 1 h of CC(C)C[C@H](NC(=O)[C@H](Cc1cnc[nH]1)N(C)C(=O)CNC(=O)[C@@H](NC(=O)[C@H](C)NC(=O)[C@H](Cc1c[nH]c2ccccc12)NC(=O)[C@H](CCC(N)=O)NC(=O)[C@@H](Cc1ccccc1)NC(=O)CN1CCC(NC(=O)CN2CCN(CC(=O)O)CCN(CC(=O)O)CCN(CC(=O)O)CC2)CC1)C(C)(C)C)C(=O)N1CSC[C@H]1C(N)=O [[^177Lu]Lu-LW01110, metal not drawn] is ____.
0.15

Fill in the blank: the reported tissue uptake at 1 h of CC(C)C[C@H](NC(=O)[C@H](Cc1cnc[nH]1)N(C)C(=O)CNC(=O)[C@@H](NC(=O)[C@H](C)NC(=O)[C@H](Cc1c[nH]c2ccccc12)NC(=O)[C@H](Cc1c[nH]cn1)NC(=O)[C@@H](Cc1ccccc1)NC(=O)CN1CCC(NC(=O)CN2CCN(CC(=O)O)CCN(CC(=O)O)CCN(CC(=O)O)CC2)CC1)C(C)(C)C)C(=O)N1CSC[C@H]1C(N)=O [[^177Lu]Lu-LW01142, metal not drawn] ({DOTA}-[X1][dF]HWA[Tle]G[NMeH]L[Thz]-NH2) is ____.
0.22

Fill in the blank: the reported tissue uptake at 1 h of CC(C)C[C@@H](CN1CSC[C@H]1C(N)=O)NC(=O)[C@H](Cc1cnc[nH]1)NC(=O)CN(C)C(=O)[C@@H](NC(=O)[C@H](C)NC(=O)[C@H](Cc1c[nH]c2ccccc12)NC(=O)[C@H](CCC(N)=O)NC(=O)[C@@H](Cc1ccccc1)NC(=O)CN1CCC(NC(=O)CN2CCN(CC(=O)O)CCN(CC(=O)O)CCN(CC(=O)O)CC2)CC1)C(C)C [[^177Lu]Lu-TacsBOMB5, metal not drawn] is ____.
0.22
